Taken from patent US11939314B2.

What IC50 was measured for each of the following?
biological target: c-Kit(V654A) (Homo sapiens, UniProt P10721, V654A); construct: amino acids 544-end containing the V654A mutation; GST (N); test: c-Kit(V654A) assay; details: recombinant human c-Kit aa 544-end, 200 μM ATP, 1.4E-06 means 1.4×10^−6, read-out: Inhibition (IC50) of c-KIT (V654A)
Sequence (P10721 544-976 V654A): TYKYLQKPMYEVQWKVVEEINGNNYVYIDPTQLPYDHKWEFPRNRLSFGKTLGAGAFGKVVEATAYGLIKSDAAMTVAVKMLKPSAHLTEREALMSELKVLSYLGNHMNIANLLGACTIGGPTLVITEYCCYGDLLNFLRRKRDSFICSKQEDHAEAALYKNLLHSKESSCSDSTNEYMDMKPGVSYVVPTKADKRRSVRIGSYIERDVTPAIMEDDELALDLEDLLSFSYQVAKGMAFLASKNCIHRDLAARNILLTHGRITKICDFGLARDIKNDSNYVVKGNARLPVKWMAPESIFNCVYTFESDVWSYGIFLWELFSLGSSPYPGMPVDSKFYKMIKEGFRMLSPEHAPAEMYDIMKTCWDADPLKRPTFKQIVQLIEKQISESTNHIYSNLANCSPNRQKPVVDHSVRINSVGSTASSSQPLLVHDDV
Give just the number in nM; leave the unit off.

Task: Quick one: IC50 for O=c1[nH]c2ccc(F)cc2cc1-c1cn(-c2ccc(OCCC3CCNCC3)cc2)nn1 [A133] ?
Output: 11

Task: Would you mind doing CN1CCN(C(=O)C2CCCN2C(=O)c2ccc(-n3cc(-c4cc5cc(F)ccc5[nH]c4=O)nn3)cc2)CC1 (stereo not shown) [A281] as well?
Output: 57

Task: Would you mind doing CN(C(=O)[C@H]1CCCO1)c1ccc(-n2cc(-c3cc4cc(F)ccc4[nH]c3=O)nn2)cc1 [A343] as well?
Output: 9

Task: Would you mind doing CN(C)C1CN(C(=O)c2ccc(-n3cc(-c4cc5cc(F)ccc5[nH]c4=O)nn3)cc2)CC1(F)F (stereo not shown) [A339] as well?
Output: 9.2

###

target: c-Kit(V654A) (Homo sapiens, UniProt P10721, V654A); construct: amino acids 544-end containing the V654A mutation; GST (N); test: c-Kit(V654A) assay; conditions: recombinant human c-Kit aa 544-end, 200 μM ATP, 1.4E-06 means 1.4×10^−6, read-out: Inhibition (IC50) of c-KIT (V654A)
Outcome Measure: pIC50
Scale explanation: pIC50 corresponds to minus log10 of a concentration expressed in moles per litre.

Task: Quick one: pIC50 for CN1CCN(CCCOc2ccc(-n3cc(-c4cc5cc(F)c(F)cc5[nH]c4=O)nn3)cc2)CC1 ?
Output: 7.09

Task: Would you mind doing CO[C@@H]1C[C@@H](CO)N(C(=O)c2ccc(-n3cc(-c4cc5cc(F)ccc5[nH]c4=O)nn3)cc2)C1 as well?
Output: 7.00

Task: Would you mind doing O=C1COCCN1c1ccc(-n2cc(-c3cc4ccccc4[nH]c3=O)nn2)cn1 as well?
Output: 5.24

Task: Would you mind doing CN(C)C[C@@H]1CCCN1C(=O)c1ccc(-n2cc(-c3cc4cc(F)ccc4[nH]c3=O)cn2)cc1 as well?
Output: 6.57

Task: Would you mind doing O=C(c1ccc(-n2cc(-c3cc4cc(F)ccc4[nH]c3=O)nn2)cc1)N1CCCC1c1cccnc1 (stereo not drawn) as well?
Output: 8.29

Task: Would you mind doing O=C(c1ccc(-n2cc(-c3cc4cc(F)ccc4[nH]c3=O)nn2)cc1)N1CCC2(COC2)C1 as well?
Output: 7.44

###

biological target: c-Kit(V654A) (Homo sapiens, UniProt P10721, V654A); construct: amino acids 544-end containing the V654A mutation; GST (N); test: c-Kit(V654A) assay; conditions: recombinant human c-Kit aa 544-end, 200 μM ATP, 1.4E-06 means 1.4×10^−6, read-out: Inhibition (IC50) of c-KIT (V654A)
Counter-ions that a name gives are not always drawn.
The label fulfilled is reserved for IC50 strictly under 40 nM; not fulfilled covers values equal to or above it.

Task: Regarding CN1CCC(Cc2ccc(-n3cc(-c4cc5cc(F)ccc5[nH]c4=O)nn3)cc2)CC1 , kindly confirm whether its IC50 is beneath 40 nM.
Output: fulfilled

Task: Would you mind doing CN1CCN(C(=O)COc2ccc(-n3cc(-c4cc5cc(F)c(F)cc5[nH]c4=O)nn3)cc2)CC1 as well?
Output: fulfilled

Task: Would you mind doing CN(C)C[C@@H]1CCCN1C(=O)c1ccc(-n2cc(-c3cc4cc(F)c(F)cc4[nH]c3=O)nn2)cc1 as well?
Output: not fulfilled

Task: Would you mind doing CN(C)C[C@H]1CCCN1C(=O)c1ccc(-n2cc(-c3cc4cc(F)c(F)cc4[nH]c3=O)nn2)cc1 as well?
Output: not fulfilled

Task: Would you mind doing CS(=O)(=O)[C@H]1CCN(C(=O)c2ccc(-n3cc(-c4cc5cc(F)ccc5[nH]c4=O)nn3)cc2)C1 as well?
Output: fulfilled

Task: Would you mind doing CO[C@H]1CN(C(=O)c2ccc(-n3cc(-c4cc5cc(F)ccc5[nH]c4=O)nn3)cc2)C[C@H]1OC as well?
Output: not fulfilled

Task: Would you mind doing N[C@@H]1CCCN(C(=O)c2ccc(-n3cc(-c4cc5cc(F)c(F)cc5[nH]c4=O)nn3)cc2)C1 [A309, hydrochloride] as well?
Output: not fulfilled

Task: Would you mind doing COCCN(C)C(=O)c1ccc(-n2cc(-c3cc4cc(F)c(F)cc4[nH]c3=O)nn2)cc1 as well?
Output: not fulfilled

Task: Would you mind doing O=C(NC1COC1)c1ccc(-n2cc(-c3cc4cc(F)ccc4[nH]c3=O)nn2)cc1 as well?
Output: not fulfilled

Task: Would you mind doing Cc1c(-c2cn(-c3ccc(C(=O)N4CCOCC4)cc3)nn2)c(=O)[nH]c2ccccc12 as well?
Output: not fulfilled

Task: Would you mind doing Cc1cc(-n2cc(-c3cc4ccccc4[nH]c3=O)nn2)ccc1C(=O)N1CCOCC1 as well?
Output: fulfilled

Task: Would you mind doing CC(=O)N1C[C@@H]2[C@H](C1)[C@H]2NC(=O)c1ccc(-n2cc(-c3cc4cc(F)ccc4[nH]c3=O)nn2)cc1 as well?
Output: not fulfilled

Task: Would you mind doing O=c1[nH]c2cc(F)c(F)cc2cc1-c1cn(-c2ccc(OCCN3CCNCC3)cc2)nn1 as well?
Output: fulfilled

Task: Would you mind doing CO[C@H]1CCN(C(=O)c2cc(-n3cc(-c4cc5cc(F)ccc5[nH]c4=O)nn3)cs2)C1 as well?
Output: fulfilled

Task: Would you mind doing CN(C)C(=O)c1ccc(-n2cc(-c3cc4ccccc4[nH]c3=O)nn2)cc1 as well?
Output: fulfilled
